System: foxtail, giant (giant foxtail, Setaria faberii)
Assay: Test A postemergence foxtail, giant
Type: in vivo
Details: 500 g ai/ha, 0 to 100 scale, 0 is no effect, 100 is complete control
A collection of compounds and their measured Plant response rating, Foxtail, Giant
Write no unit; give the number alone.

Consider the following illustrative entries.
// Plant response rating, Foxtail, Giant lookup, compound = O=C1NCCC(c2cccc(C(F)F)c2)C1C(=O)Nc1ccccc1F (stereo not shown) , result: 30

// Plant response rating, Foxtail, Giant lookup, compound = Cc1c(F)cccc1NC(=O)C1C(=O)NCCC1c1cccc(C(F)(F)F)c1 (racemic) , result: 90

// Plant response rating, Foxtail, Giant lookup, compound = O=C1NCCC(c2cccc(C(F)(F)F)c2)C1C(=O)Nc1ccccc1Cl (racemic) , result: 80

Please examine the following record next.
// Plant response rating, Foxtail, Giant lookup, compound = O=C1NCCC(c2cccc(OC(F)F)c2)C1C(=O)Nc1cccc(F)c1F (racemic) , result: 80

----------
A collection of compounds and their measured Plant response rating, Wheat
System: wheat (Triticum aestivum)
Assay: Test A postemergence wheat
Type: in vivo
Settings: 500 g ai/ha, 0 to 100 scale, 0 is no effect, 100 is complete control
Write no unit; give the number alone.

// Plant response rating, Wheat lookup, compound = O=C1NCCC(c2ccc(F)c(F)c2)C1C(=O)Nc1ccccc1C(F)(F)F (racemic) , result: 0

// Plant response rating, Wheat lookup, compound = O=C1NCCC(c2cccc(C(F)F)c2)C1C(=O)Nc1ccccc1F (stereo not drawn) , result: 0

// Plant response rating, Wheat lookup, compound = `O=C1NCC[C@@H](c2cccc(C(F)(F)F)c2)[C@@H]1C(=O)Nc1cccc(F)c1F` , result: 0

// Plant response rating, Wheat lookup, compound = O=C1NCCC(c2cccc(Cl)c2)C1C(=O)Nc1ccccc1C(F)(F)F (racemic) , result: 0

// Plant response rating, Wheat lookup, compound = O=C1NCCC(c2cccc(C(F)(F)F)c2)C1C(=O)Nc1ccccc1Cl (racemic) , result: 20

Others:
// Plant response rating, Wheat lookup, compound = O=C1NCCC(c2cccc(OC(F)F)c2)C1C(=O)Nc1ccccc1F (racemic) , result: 0

// Plant response rating, Wheat lookup, compound = O=C1NCCC(c2ccc(F)cc2)C1C(=O)Nc1ccccc1C(F)(F)F (racemic) , result: 0

// Plant response rating, Wheat lookup, compound = O=C1NCCC(c2cccc(OC(F)(F)F)c2)C1C(=O)Nc1ccccc1F (racemic) , result: 0

// Plant response rating, Wheat lookup, compound = O=C1NCCC(c2cccc(C(F)(F)F)c2)C1C(=O)Nc1cccc(Cl)c1F (racemic) , result: 30

----------
Test system: ragweed (common ragweed, Ambrosia elatior)
Assay: Test A postemergence ragweed
Assay type: in vivo
Settings: Ambrosia artemisiifolia, post-emergence, 240 h, 500 g ai/ha, 0 to 100 scale, 0 is no effect, 100 is complete control, read-out: Plant response rating, Ragweed
EXPERIMENTAL ENDPOINT: pest or weed control at 500 g/ha (%)
# value in %; strip the unit string

Tested on ragweed (common ragweed, Ambrosia elatior), the item O=C1NCCC(c2ccc(C(F)(F)F)cc2)C1C(=O)Nc1ccccc1F (centres unmarked) [Compound 14] showed pest or weed control at 500 g/ha equal to 0

Tested on ragweed (common ragweed, Ambrosia elatior), the item O=C1NCC[C@H](c2cccc(C(F)(F)F)c2)[C@H]1C(=O)Nc1cccc(Cl)c1F [Compound 25] showed pest or weed control at 500 g/ha equal to 0

Tested on ragweed (common ragweed, Ambrosia elatior), the item O=C1NCCC(c2ccc(C(F)(F)F)cc2)C1C(=O)Nc1cccc(F)c1F (centres unmarked) [Compound 11] showed pest or weed control at 500 g/ha equal to 20

Tested on ragweed (common ragweed, Ambrosia elatior), the item O=C1NCC[C@H](c2cccc(C(F)(F)F)c2)[C@H]1C(=O)Nc1cccc(F)c1F [Compound 21] showed pest or weed control at 500 g/ha equal to 0

Tested on ragweed (common ragweed, Ambrosia elatior), the item O=C1NCCC(c2cccc(C(F)F)c2)C1C(=O)Nc1cccc(F)c1F (centres unmarked) [Compound 49] showed pest or weed control at 500 g/ha equal to 0

Others:
Tested on ragweed (common ragweed, Ambrosia elatior), the item CN1CC[C@H](c2ccc(F)cc2)[C@@H](C(=O)Nc2cccc(F)c2F)C1=O [Compound 52] showed pest or weed control at 500 g/ha equal to 0

Tested on ragweed (common ragweed, Ambrosia elatior), the item O=C1NCC[C@H](c2cccc(Cl)c2)[C@H]1C(=O)Nc1cccc(F)c1F [Compound 42] showed pest or weed control at 500 g/ha equal to 0

Tested on ragweed (common ragweed, Ambrosia elatior), the item O=C1NCC[C@H](c2ccc(C(F)(F)F)cc2)[C@H]1C(=O)Nc1cccc(F)c1F [Compound 22] showed pest or weed control at 500 g/ha equal to 50
